Test system: pERK in NCI-H358 cells
Assay: Cell-based pERK HTRF assay (pERK inhibition in H358 cells)
Details: Homo sapiens, NCI-H358, 0.5 h, 30 min incubation
Experimental: Biological Example 3: Cell-Based pERK HTRF Assay pERK assays (Perkin Elmer) were used to determine the effectiveness of compounds of the present disclosure in disrupting KRAS G12C protein/effector signaling in cells. […] Samples were homogenized by pipetting up and down and then transferred (16 μL of cell lysates) from the 96-well cell culture plate to two wells of the HTRF 384-well detection plate containing the antibody solution. […] Therefore, readings can be made between 4 and 24 h of incubation. […]
Exercise: for every item that follows, state its recorded IC50.

Request: Bench note: what IC50 did C=CC(=O)N1CC[C@@H](N(C)c2nc(OC[C@@]34CCCN3C[C@H](F)C4)nc3cc(-c4ccc(F)c5sc(N)c(C#N)c45)c(F)cc23)[C@@H]1C show?
Response: < 100 nM

Request: State the recorded IC50 for this entry: C=CC(=O)N1CC[C@@H](N(C)c2nc(OC[C@@]34CCCN3C[C@H](F)C4)nc3c(F)c(-c4ccc(F)c5sc(N)c(C#N)c45)ccc23)[C@@H]1CC
Response: < 100 nM

Request: IC50 lookup needed for C=CC(=O)N1CC[C@@H](N(CC)c2nc(OC[C@]34CCCN3C[C@H](F)C4)nc3c(F)c(-c4ccc(F)c5sc(N)c(C#N)c45)c(Cl)cc23)[C@H]1C , thanks.
Response: < 100 nM

Request: Look up IC50: C=CC(=O)N1CCC(N(C)c2nc(OC(C)C3CC(=C(F)F)CN3C)nc3c(F)c(-c4ccc(F)c5sc(N)c(C#N)c45)c(Cl)cc23)C1C (stereo not drawn)
Response: 100 to 1000 nM

Request: Which IC50 is listed for C=CC(=O)N1CC[C@@H](N(C)c2nc(OC[C@@]34CCCN3C[C@H](F)C4)nc3c(F)c(-c4nc(N)cc(C)c4C(F)(F)F)c(C(F)(F)F)cc23)[C@@H]1C ?
Response: < 100 nM

Request: Field request: IC50 | item: C=CC(=O)N1CC[C@@H](N(CC)c2nc(OC[C@@]34CCCN3C[C@H](F)C4)nc3c(F)c(-c4ccc(F)c5sc(N)c(C#N)c45)ccc23)[C@@H]1CC
Response: 100 to 1000 nM

Request: Which IC50 value belongs to C=CC(=O)N1CC[C@@H](N(CC)c2nc(OC[C@]34CCCN3C[C@H](OC)C4)nc3c(F)c(-c4ccc(F)c5sc(N)c(C#N)c45)c(C(F)(F)F)cc23)[C@H]1C ?
Response: < 100 nM

Request: Bench note: what IC50 did C=CC(=O)N1CC[C@@H](N(CC)c2nc(OC[C@@]34CCCN3C[C@H](F)C4)nc3c(F)c(-c4ccc(F)c5sc(N)c(C#N)c45)c(C(F)(F)F)cc23)[C@@H]1C show?
Response: < 100 nM

Request: Tell me the measured IC50 of C=CC(=O)N1CC[C@@H](N(C)c2nc(OC[C@@H]3C[C@@H](OC)CN3C)nc3c(F)c(-c4ccc(F)c5sc(N)c(C#N)c45)c(C(F)(F)F)cc23)[C@@H]1C , please.
Response: < 100 nM

Request: I am curious: what IC50 value has been reported for C=CC(=O)N1CC[C@@H](N(C)c2nc(OC[C@@H]3CC(=C(F)F)CN3C)nc3c(F)c(-c4ccc(F)c5sc(N)c(C#N)c45)c(C(F)(F)F)cc23)[C@H]1C ?
Response: < 100 nM

Request: Data request, read-out IC50, for C=CC(=O)N1CC[C@@H](N(CC)c2nc(OC[C@@H]3C[C@@H](F)CN3C)nc3c(F)c(-c4ccc(F)c5sc(N)c(C#N)c45)ccc23)[C@H]1C
Response: < 100 nM

Request: // IC50 lookup, key: C=CC(=O)N1CC[C@@H](N(CC)c2nc(OC[C@]34CCCN3C[C@H](OC)C4)nc3c(F)c(-c4ccc(F)c5sc(N)c(C#N)c45)ccc23)[C@H]1C
Response: 100 to 1000 nM

Request: Fill in: IC50 of C=CC(=O)N1CC[C@@H](N(C)c2nc(OC[C@@]34CCCN3C[C@H](F)C4)nc3c(F)c(-c4ccc(F)c5sc(N)c(C#N)c45)ccc23)[C@H]1CC is ___
Response: < 100 nM

Request: Fill blank: measured IC50 of the molecule C=CC(=O)N1C2CCC1CN(c1nc(OC[C@@]34CCCN3C[C@H](F)C4)nc3c(F)c(-c4ccc(F)c5sc(N)c(C#N)c45)c(C(F)(F)F)cc13)C2 is ____.
Response: < 100 nM

Request: Given the molecule C=CC(=O)N1C[C@H](C)N(c2nc(OC[C@@]34CCCN3C[C@H](F)C4)nc3c(F)c(-c4ccc(F)c5sc(N)c(C#N)c45)c(Cl)cc23)C[C@H]1C (atropisomer, axis not shown) , what is its reported IC50?
Response: < 100 nM

Request: I'd like to know its IC50. The molecule in question is C=CC(=O)N1CC[C@@H](N(C)c2nc(O[C@@H](C)[C@@H]3[C@@H](OC)CCN3C)nc3c(F)c(-c4ccc(F)c5sc(N)c(C#N)c45)c(Cl)cc23)[C@H]1C
Response: < 100 nM

Request: Dear colleague, I am looking for the recorded IC50 of the following molecule: C=CC(=O)N1CC[C@@H](N(C)c2nc(OC[C@@H]3C[C@@H](F)CN3C)nc3c(F)c(-c4ccc(F)c5sc(N)c(C#N)c45)c(C(F)(F)F)cc23)[C@H]1C
Response: < 100 nM

Request: Data request, read-out IC50, for C=CC(=O)N1CC[C@@H](N(C)c2nc(O[C@@H](C)[C@@H]3C(=C(F)F)CCN3C)nc3c(F)c(-c4ccc(F)c5sc(N)c(C#N)c45)c(C(F)(F)F)cc23)[C@H]1C
Response: < 100 nM

Request: Returns the measured IC50 for the input molecule. Input: C=CC(=O)N1CC[C@@H](N(C)c2nc(OC[C@@]34CCCN3C[C@H](F)C4)nc3cc(-c4ccc(F)c5sc(N)c(C#N)c45)c(C#N)cc23)[C@@H]1CC
Response: < 100 nM

Request: Looking for the measured IC50 of C=CC(=O)N1CC[C@@H](N(CC)c2nc(OC[C@@H]3C[C@@H](F)CN3C)nc3cc(-c4ccc(F)c5sc(N)c(C#N)c45)c(F)cc23)[C@H]1C , can you help?
Response: 100 to 1000 nM

Request: What value of measured IC50 is listed for C=CC(=O)N1CC[C@@H](N(C)c2nc(O[C@@H](C)[C@@H]3[C@@H](OC)CCN3C)nc3c(F)c(-c4ccc(F)c5sc(N)c(C#N)c45)c(C(F)(F)F)cc23)[C@H]1C ?
Response: < 100 nM

====

Tested on: pERK in NCI-H358 cells
Assay: Cell-based pERK HTRF assay (pERK inhibition in H358 cells)
Conditions: Homo sapiens, NCI-H358, 0.5 h, 30 min incubation
Protocol: Biological Example 3: Cell-Based pERK HTRF Assay pERK assays (Perkin Elmer) were used to determine the effectiveness of compounds of the present disclosure in disrupting KRAS G12C protein/effector signaling in cells. […] Samples were homogenized by pipetting up and down and then transferred (16 μL of cell lysates) from the 96-well cell culture plate to two wells of the HTRF 384-well detection plate containing the antibody solution. […] Therefore, readings can be made between 4 and 24 h of incubation. […]
pIC50: −log10 of the molar value.
Consider the following compounds; for each one, report its pIC50.

Request: Given the entry C=CC(=O)N1CC[C@@H](N(C)c2nc(OC[C@@H]3C[C@@H](OC)CN3CC)nc3c(F)c(-c4ccc(F)c5sc(N)c(C#N)c45)c(C(F)(F)F)cc23)[C@@H]1C , what pIC50 was observed with pERK in NCI-H358 cells?
Response: > 7.00

Request: pIC50, test system pERK in NCI-H358 cells, entry C=CC(=O)N1CC[C@@H](N(CC)c2nc(OC[C@@]34CCCN3C[C@H](F)C4)nc3c(F)c(-c4ccc(F)c5sc(N)c(C#N)c45)c(Cl)cc23)[C@@H]1C
Response: > 7.00

Request: So what pIC50 did C=CC(=O)N1CC[C@@H](N(C)c2nc(OC[C@@H]3C(=C(F)F)CCN3C)nc3c(F)c(-c4ccc(F)c5sc(N)c(C#N)c45)c(Cl)cc23)[C@H]1C get with pERK in NCI-H358 cells?
Response: > 7.00

====

Answer each item with its documented pIC50.
Target: Avi-KRAS G12C (1-169) GppNHp/RAF1 RBD-3×FLAG (52-151) (Homo sapiens, UniProt P01116, G12C)
Construct: Avi-KRAS G12C (1-169) GppNHp; Avi (N)
Sequence (P01116 1-169 isoform P01116-2 G12C limits assumed): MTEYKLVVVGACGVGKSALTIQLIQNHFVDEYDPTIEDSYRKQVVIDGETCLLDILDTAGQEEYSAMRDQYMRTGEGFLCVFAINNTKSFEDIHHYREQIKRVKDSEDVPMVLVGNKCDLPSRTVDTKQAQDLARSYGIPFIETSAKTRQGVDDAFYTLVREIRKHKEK
Assay: Raf1 RBD-KRAS G12C-GppNHp disruption assay (protein:protein interaction HTRF)
Source text: Biological Example 2: Disrupting KRAS G12C-Effector Binding (Protein: Protein Interaction HTRF Assay) A protein: protein interaction (PPI) Homogeneous Time Resolved Fluorescence (HTRF) assay was used to determine the effectiveness of compounds of the present disclosure in disrupting KRAS G12C protein and effector (RAF1 Ras Binding Domain (RBD)) binding. […]
pIC50: −log10 of the molar value.

Request: Report pIC50 for C=CC(=O)N1CC[C@@H](N(CC)c2nc(OC[C@]34CCCN3C[C@H](OC)C4)nc3c(F)c(-c4ccc(F)c5sc(N)c(C#N)c45)c(C(F)(F)F)cc23)[C@H]1C [Compound 158] tested on Avi-KRAS G12C (1-169) GppNHp/RAF1 RBD-3×FLAG (52-151) (Homo sapiens, UniProt P01116, G12C).
Response: > 6.30

Request: Give the reported pIC50 for C=CC(=O)N1CC[C@@H](N(C)c2nc(OC[C@@]34CCCN3C[C@H](F)C4)nc3cc(-c4ccc(F)c5sc(N)c(C#N)c45)c(F)cc23)[C@@H]1C [Compound 31] (system: Avi-KRAS G12C (1-169) GppNHp/RAF1 RBD-3×FLAG (52-151) (Homo sapiens, UniProt P01116, G12C)).
Response: > 6.30

Request: Look up pIC50 with Avi-KRAS G12C (1-169) GppNHp/RAF1 RBD-3×FLAG (52-151) (Homo sapiens, UniProt P01116, G12C) for this compound: [2H]C1([2H])CCC2(C([2H])([2H])Oc3nc(N4CC(C)N(C(=O)C=C)CC4C)c4cc(C(F)(F)F)c(-c5ccc(F)c6sc(N)c(C#N)c56)c(F)c4n3)CC(F)CN12 (stereo not shown) [Compound 96]
Response: > 6.30

Request: Avi-KRAS G12C (1-169) GppNHp/RAF1 RBD-3×FLAG (52-151) (Homo sapiens, UniProt P01116, G12C) / pIC50 / C=CC(=O)N1CC[C@@H](N(CC)c2nc(OC[C@@]34CCCN3C[C@H](OC)C4)nc3cc(-c4ccc(F)c5sc(N)c(C#N)c45)c(F)cc23)[C@H]1C [Compound 149] : value?
Response: > 6.30

Request: Form entry - test system: Avi-KRAS G12C (1-169) GppNHp/RAF1 RBD-3×FLAG (52-151) (Homo sapiens, UniProt P01116, G12C); read-out: pIC50; compound: C=CC(=O)N1CC[C@@H](N(C)c2nc(OC[C@@H]3C[C@@H](OC)CN3C)nc3c(F)c(-c4ccc(F)c5sc(N)c(C#N)c45)c(C(F)(F)F)cc23)[C@H]1C (single isomer, unassigned) [Compound 174]
Response: 5.30 to 6.30

Request: // lookup pIC50 | system=Avi-KRAS G12C (1-169) GppNHp/RAF1 RBD-3×FLAG (52-151) (Homo sapiens, UniProt P01116, G12C) | key= C=CC(=O)N1CC[C@@H](N(CC)c2nc(OC[C@@]34CCCN3C[C@H](OC)C4)nc3c(F)c(-c4ccc(F)c5sc(N)c(C#N)c45)c(Cl)cc23)[C@H]1C [Compound 163]
Response: > 6.30

Request: Hi! What's the reported pIC50 for C=CC(=O)N1CCC(N(C)c2nc(OC[C@@]34CCCN3C[C@H](F)C4)nc3cc(-c4ccc(F)c5sc(N)c(C#N)c45)c(C#N)cc23)[C@H]1CC (stereo partly shown) [Compound 7] on Avi-KRAS G12C (1-169) GppNHp/RAF1 RBD-3×FLAG (52-151) (Homo sapiens, UniProt P01116, G12C)?
Response: > 6.30

Request: Item: C=CC(=O)N1CC[C@@H](N(C)c2nc(OC[C@@H]3CC4(CC4)CN3CC)nc3c(F)c(-c4ccc(F)c5sc(N)c(C#N)c45)c(C(F)(F)F)cc23)[C@@H]1C [Compound 95] Test system: Avi-KRAS G12C (1-169) GppNHp/RAF1 RBD-3×FLAG (52-151) (Homo sapiens, UniProt P01116, G12C) Read-out: pIC50 Value: ?
Response: > 6.30

Request: Form entry - test system: Avi-KRAS G12C (1-169) GppNHp/RAF1 RBD-3×FLAG (52-151) (Homo sapiens, UniProt P01116, G12C); read-out: pIC50; compound: C=CC(=O)N1C[C@H](C)N(c2nc(OC[C@@]34CCCN3C[C@H](F)C4)nc3c(F)c(-c4ccc(F)c5sc(N)c(C#N)c45)c(Cl)cc23)C[C@H]1C (atropisomer, axis not shown) [Compound 102]
Response: > 6.30

Request: Kindly state the measured pIC50 obtained for C=CC(=O)N1C[C@H](N(C)c2nc(OC[C@@H]3CCCN3C)nc3c(F)c(-c4ccc(F)c5sc(N)c(C#N)c45)c(C(F)(F)F)cc23)C[C@@H]1C [Compound 153] with Avi-KRAS G12C (1-169) GppNHp/RAF1 RBD-3×FLAG (52-151) (Homo sapiens, UniProt P01116, G12C).
Response: > 6.30
